Reference source: ChEMBL document CHEMBL1133808

- assaySystem: Integrin alpha-4/beta-7 (Homo sapiens, UniProt P13612+P26010)
- assayExplanation: Inhibition of [125I]VCAM-Ig binding to alpha4-beta7 integrin of human RPMI-8866 cells
- Type: cell-based
pIC50: −log10 of the molar value. Starred links: 1 amine or outer side, 2 acyl side, 3 side chain; linkers in the order of their positions; H or OH if unused. Non-standard residues stand in square brackets, D forms with d. Residues, ends and D or L forms follow the SMILES beside them. *: point of attachment. X1 = O=C(Cc1ccc(N[*:1])cc1)[*:2]; NH(2-Me-phenyl) = Cc1ccccc1N*; CO = O=C([*:1])[*:2]
valueKind: pIC50

I: C[C@@]1(C(=O)N[C@@H](Cc2ccc(-c3cccc4cc[nH]c34)cc2)C(=O)O)CCCN1S(=O)(=O)c1cc(Cl)cc(Cl)c1
II: CSc1ccccc1-c1ccc(C[C@H](NC(=O)[C@]2(C)CCCN2S(=O)(=O)c2cc(Cl)cc(Cl)c2)C(=O)O)cc1
III: Cc1ccccc1NC(=O)Nc1ccc(CC(=O)N[C@@H](CC(C)C)C(=O)N[C@@H](CC(=O)O)C(=O)N[C@H](C(=O)N2CCC[C@H]2C(=O)O)C(C)C)cc1 ({NH(2-Me-phenyl)-CO}-[X1]LDVP-OH)
IV: C[C@@]1(C(=O)N[C@@H](Cc2ccc(-c3cc(C#N)ccc3F)cc2)C(=O)O)CCCN1S(=O)(=O)c1cc(Cl)cc(Cl)c1
Q: Sort the items above on pIC50, descending. Ranked list of labels, please, in the requested order.
Ans: II, III, IV, I

P: C[C@@]1(C(=O)N[C@@H](Cc2ccc(-c3cccc(C#N)c3)cc2)C(=O)O)CCCN1S(=O)(=O)c1cc(Cl)cc(Cl)c1
Q: C[C@@]1(C(=O)N[C@@H](Cc2ccc(-c3nccs3)cc2)C(=O)O)CCCN1S(=O)(=O)c1cc(Cl)cc(Cl)c1
Q: Hey, which is lower on measured pIC50, P or Q ? // return label of chosen record
Ans: P

----------
- assaySystem: Integrin alpha-4/beta-7 (Homo sapiens, UniProt P13612+P26010)
- Sequence (P13612 whole entry): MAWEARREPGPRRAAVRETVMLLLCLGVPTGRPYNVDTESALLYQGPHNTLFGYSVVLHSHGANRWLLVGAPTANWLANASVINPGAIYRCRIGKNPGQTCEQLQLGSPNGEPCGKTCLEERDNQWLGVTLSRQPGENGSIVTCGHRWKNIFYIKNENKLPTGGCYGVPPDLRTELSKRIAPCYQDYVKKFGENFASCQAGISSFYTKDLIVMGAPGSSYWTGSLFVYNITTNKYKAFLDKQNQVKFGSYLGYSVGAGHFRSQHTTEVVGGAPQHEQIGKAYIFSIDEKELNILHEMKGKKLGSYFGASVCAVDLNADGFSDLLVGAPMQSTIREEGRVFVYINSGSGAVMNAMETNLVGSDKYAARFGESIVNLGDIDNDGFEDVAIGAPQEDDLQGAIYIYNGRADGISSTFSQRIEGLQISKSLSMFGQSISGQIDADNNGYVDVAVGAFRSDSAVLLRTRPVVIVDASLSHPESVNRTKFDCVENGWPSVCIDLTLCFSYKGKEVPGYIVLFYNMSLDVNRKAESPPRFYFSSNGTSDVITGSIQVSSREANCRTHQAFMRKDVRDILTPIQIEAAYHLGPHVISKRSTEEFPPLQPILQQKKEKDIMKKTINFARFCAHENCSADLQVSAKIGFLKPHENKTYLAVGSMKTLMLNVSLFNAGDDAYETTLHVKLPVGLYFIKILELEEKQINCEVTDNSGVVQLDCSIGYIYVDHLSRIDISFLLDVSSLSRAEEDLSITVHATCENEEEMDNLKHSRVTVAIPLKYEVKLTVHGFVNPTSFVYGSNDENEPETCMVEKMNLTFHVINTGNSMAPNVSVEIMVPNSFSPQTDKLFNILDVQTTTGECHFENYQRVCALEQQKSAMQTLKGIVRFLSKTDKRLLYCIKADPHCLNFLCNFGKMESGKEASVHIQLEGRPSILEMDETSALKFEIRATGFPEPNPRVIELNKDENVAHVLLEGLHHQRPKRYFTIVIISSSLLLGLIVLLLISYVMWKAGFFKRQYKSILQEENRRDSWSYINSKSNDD
- Sequence (P26010 whole entry): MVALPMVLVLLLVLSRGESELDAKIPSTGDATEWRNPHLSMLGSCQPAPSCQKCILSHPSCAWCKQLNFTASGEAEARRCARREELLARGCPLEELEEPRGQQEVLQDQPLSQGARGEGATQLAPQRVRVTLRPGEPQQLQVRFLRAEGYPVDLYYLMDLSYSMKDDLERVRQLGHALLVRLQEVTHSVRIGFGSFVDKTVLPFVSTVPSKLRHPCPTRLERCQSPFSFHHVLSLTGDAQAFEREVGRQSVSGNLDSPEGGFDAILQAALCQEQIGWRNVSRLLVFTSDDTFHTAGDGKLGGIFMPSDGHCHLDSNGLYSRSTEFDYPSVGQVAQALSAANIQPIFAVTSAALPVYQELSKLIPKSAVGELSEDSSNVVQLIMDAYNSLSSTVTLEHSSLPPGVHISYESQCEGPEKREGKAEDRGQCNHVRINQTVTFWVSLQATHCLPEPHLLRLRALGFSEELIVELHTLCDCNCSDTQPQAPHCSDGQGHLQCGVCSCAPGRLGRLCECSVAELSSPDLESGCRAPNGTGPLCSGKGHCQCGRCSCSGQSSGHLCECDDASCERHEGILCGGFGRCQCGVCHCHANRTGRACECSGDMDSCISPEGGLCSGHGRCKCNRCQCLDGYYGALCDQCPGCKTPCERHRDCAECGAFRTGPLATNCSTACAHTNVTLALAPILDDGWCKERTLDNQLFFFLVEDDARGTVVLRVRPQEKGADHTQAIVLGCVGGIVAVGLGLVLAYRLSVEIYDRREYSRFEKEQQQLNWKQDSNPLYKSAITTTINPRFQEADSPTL
- assayExplanation: Inhibition of [125I]VCAM-Ig binding to alpha4-beta7 integrin of human RPMI-8866 cells
- Format: cell-based
valueKind: IC50 (nM)

Use the examples below as a reference point.
- C[C@@]1(C(=O)N[C@@H](Cc2ccc(-c3ccccc3C(N)=O)cc2)C(=O)O)CCCN1S(=O)(=O)c1cc(Cl)cc(Cl)c1: 24.3
- C[C@@]1(C(=O)N[C@@H](Cc2ccc(-c3ccccc3S(C)(=O)=O)cc2)C(=O)O)CCCN1S(=O)(=O)c1cc(Cl)cc(Cl)c1: 13.2

1: COc1ccccc1-c1ccc(C[C@H](NC(=O)[C@]2(C)CCCN2S(=O)(=O)c2cc(Cl)cc(Cl)c2)C(=O)O)cc1
2: COc1cccc(OC)c1-c1ccc(C[C@H](NC(=O)[C@]2(C)CCCN2S(=O)(=O)c2cc(Cl)cc(Cl)c2)C(=O)O)cc1
3: CN(C)C(=O)c1ccccc1-c1ccc(C[C@H](NC(=O)[C@]2(C)CCCN2S(=O)(=O)c2cc(Cl)cc(Cl)c2)C(=O)O)cc1
Q: Put the entries in order of IC50, starting with the largest number. Ranked list of labels, please, in the requested order.
Ans: 1, 3, 2

P: C[C@@]1(C(=O)N[C@@H](Cc2ccc(-c3cccnc3)cc2)C(=O)O)CCCN1S(=O)(=O)c1cc(Cl)cc(Cl)c1
Q: C[C@@]1(C(=O)N[C@@H](Cc2ccc(-c3ccccc3Cl)cc2)C(=O)O)CCCN1S(=O)(=O)c1cc(Cl)cc(Cl)c1
Q: Which shows the larger IC50 value: P or Q ? // return label of chosen record
Ans: Q
(Q: 2260 nM, P: 311 nM)
